target: Lysine-specific demethylase 5B (Homo sapiens); experiment: Primary screen for KDM5B Histone Demethylases FDH-coupled qHTS; details: FDH-coupled NADH fluorescence (FDH is formaldehyde dehydrogenase); series mostly up to 57.7 µM; also: nearly all actives have a fitted effect of over 70% in size
The campaign covered roughly 220,000 compounds. About 5,700 (2.6%) were called active. About 18% were inconclusive and are not listed. Calls follow the shape of the dose curve; as a rule, active = well fitted inhibition curve with a large enough effect; inconclusive = small, poorly fitted or top-dose-only effect; inactive = no such curve, though single readings can be large or run the other way. For the sample, actives were picked, then their nearest neighbours and some compounds at random.
Choose the fitting class; nothing outside active, inactive is accepted.

Look over these answered cases.
CC(C)c1nc2c(c(-c3ccc(Cl)cc3)n1)CN(C(=O)c1ccccc1)CC2 inactive
O=C(NCc1c[nH]c2ncccc12)c1ccccc1F inactive
Cc1cc(Cl)ccc1-c1ccc(CN)cc1 inactive
COc1cccc(CN2CCN(C(=O)c3cnc4ccccn4c3=O)CC2=O)c1 active
CN(CC(=O)Nc1ccc2c(c1)OC1(CCCCC1)O2)Cc1cccs1 inactive

Query: Dear colleague, could you share the recorded outcome for O=C(c1cccc(Cl)c1)N1CCc2nc(C3CC3)nc(-c3ccc(Cl)cc3)c2C1 when you have a moment?
Reply: inactive

Query: Dear colleague, could you share the recorded outcome for COc1ccc(-c2c(NC(=O)C(C)C)oc3c(C)cccc3c2=O)cc1 when you have a moment?
Reply: inactive

Query: Dear colleague, could you share the recorded outcome for O=C1CCC/C(=N/NC(=O)c2cc(-c3ccncc3)nc3ccccc23)C1 when you have a moment?
Reply: inactive
